- Target entity: PDGF-AB (A-chain/B-chain heterodimer) (Homo sapiens) (UniProt P04085+P01127)
- Sequence (P01127 82-190, chain 2 of 2, other chains not shown): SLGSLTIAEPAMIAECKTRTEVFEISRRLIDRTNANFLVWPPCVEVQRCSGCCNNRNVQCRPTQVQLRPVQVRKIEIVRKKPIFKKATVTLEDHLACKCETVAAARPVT
- Procedure text: filter
- Condition context: after 12 rounds; apparent Kd
Observed property: Kd (nM)
Record the value in nM, omitting the unit from your answer.

The sequence ATCCGCCTGATTAGCGATACTNNNNNNNNNNNNNNNNNNNNNNNNNNNNNNNNNNNNNNNNACTTGAGCAAAATCACCTGCAGGGG [round 12 affinity-enriched ssDNA pool] , when measured on PDGF-AB (A-chain/B-chain heterodimer) (Homo sapiens) (UniProt P04085+P01127), yielded Kd of 0.05

Cited source: patent US20030036642
